- Test system: SK-OV-3
- runDescription: Anticancer activity against human SKOV3 cells by sulforhodamine B assay
- Format: functional, cell-based
pIC50: −log10 of the molar value.

compound	assayTarget	pIC50
C[C@H]1[C@@H](CCSCC[C@H]2O[C@@H]3O[C@]4(C)CC[C@H]5[C@H](C)CCC([C@H]2C)[C@@]35OO4)O[C@@H]2O[C@]3(C)CCC4[C@H](C)CC[C@@H]1[C@]42OO3 (some centres not stated)	SK-OV-3	5.31
C[C@@H]1CCC2[C@@H](C)[C@@H](CCNC(=O)CC[C@H](NC(=O)CC[C@H]3O[C@@H]4O[C@]5(C)CC[C@H]6[C@H](C)CCC([C@H]3C)[C@@]46OO5)C(=O)NCC[C@H]3O[C@@H]4O[C@]5(C)CC[C@H]6[C@H](C)CCC([C@H]3C)[C@@]46OO5)O[C@@H]3O[C@]4(C)CC[C@@H]1[C@@]23OO4 (some centres not stated)	SK-OV-3	4.91
C[C@@H]1CCC2[C@@H](C)[C@@H](CCC(=O)N3CCC(Cc4ccccc4)CC3)O[C@@H]3O[C@]4(C)CC[C@@H]1[C@@]23OO4 (some centres not stated)	SK-OV-3	5.78
C[C@@H]1CCC2[C@@H](C)[C@@H](CCC(=O)NCCCN3CCN(CCCNC(=O)CC[C@H]4O[C@@H]5O[C@]6(C)CC[C@H]7[C@H](C)CCC([C@H]4C)[C@@]57OO6)CC3)O[C@@H]3O[C@]4(C)CC[C@@H]1[C@@]23OO4 (some centres not stated)	SK-OV-3	6.20
C[C@H]1[C@@H](O)O[C@@H]2O[C@@]3(C)CC[C@H]4[C@H](C)CC[C@@H]1[C@@]24OO3	SK-OV-3	6.07
CO[C@H]1O[C@@H]2O[C@@]3(C)CC[C@H]4[C@H](C)CC[C@@H]([C@H]1C)[C@@]24OO3	SK-OV-3	5.10
COC(=O)[C@@H](CS)N(Cc1ccccc1)C(=O)CC[C@H]1O[C@@H]2O[C@]3(C)CC[C@H]4[C@H](C)CCC([C@H]1C)[C@@]24OO3 (some centres not stated)	SK-OV-3	5.63
C[C@@H]1CC[C@H]2[C@@H](C)C(=O)O[C@@H]3O[C@@]4(C)CC[C@@H]1[C@]32OO4	SK-OV-3	4.84
COc1cccc2c1C(=O)c1c(O)c3c(c(O)c1C2=O)C[C@@](O)(C(=O)CO)C[C@@H]3O[C@H]1C[C@H](N)[C@H](O)[C@H](C)O1	SK-OV-3	7.34
C[C@@H]1CC[C@H]2[C@H](CBr)CO[C@@H]3O[C@]4(C)CC[C@@H]1[C@]32OO4	SK-OV-3	4.81
C[C@@H]1CCC2[C@@H](C)[C@@H](CCNC(=O)CC[C@H]3O[C@@H]4O[C@]5(C)CC[C@H]6[C@H](C)CCC([C@H]3C)[C@@]46OO5)O[C@@H]3O[C@]4(C)CC[C@@H]1[C@@]23OO4 (some centres not stated)	SK-OV-3	5.36
C[C@@H]1CCC2[C@@H](C)[C@@H](CCC(=O)NCc3ccccc3)O[C@@H]3O[C@]4(C)CC[C@@H]1[C@@]23OO4 (some centres not stated)	SK-OV-3	5.32

---

- Test system: A549
- runDescription: Anticancer activity against human A549 cells by sulforhodamine B assay
- Format: functional, cell-based
pIC50: −log10 of the molar value.
assayMetric: pIC50

molecule	reportedResult
C[C@H]1[C@@H](O)O[C@@H]2O[C@@]3(C)CC[C@H]4[C@H](C)CC[C@@H]1[C@@]24OO3	6.20
C[C@@H]1CC[C@H]2[C@H](CBr)CO[C@@H]3O[C@]4(C)CC[C@@H]1[C@]32OO4	4.95
CO[C@H]1O[C@@H]2O[C@@]3(C)CC[C@H]4[C@H](C)CC[C@@H]([C@H]1C)[C@@]24OO3	5.07
C[C@@H]1CCC2[C@@H](C)[C@@H](CCC(=O)N3CCC(Cc4ccccc4)CC3)O[C@@H]3O[C@]4(C)CC[C@@H]1[C@@]23OO4 (stereo partly specified)	5.87
C[C@@H]1CCC2[C@@H](C)[C@@H](CCC(=O)NCCCN3CCN(CCCNC(=O)CC[C@H]4O[C@@H]5O[C@]6(C)CC[C@H]7[C@H](C)CCC([C@H]4C)[C@@]57OO6)CC3)O[C@@H]3O[C@]4(C)CC[C@@H]1[C@@]23OO4 (stereo partly specified)	6.07
C[C@@H]1CCC2[C@@H](C)[C@@H](CCC(=O)NCc3ccccc3)O[C@@H]3O[C@]4(C)CC[C@@H]1[C@@]23OO4 (stereo partly specified)	5.29

Recorded values, source ChEMBL document CHEMBL1156104.
